Cited source for all entries: patent US20210196796A1

# Measured Target: T1, orthogonal hCD122 receptor (hoRb), hCD122 with H133D and Y134F (human, UniProt P14784 27-550); also: reference of the scale not given here
# T1 sequence: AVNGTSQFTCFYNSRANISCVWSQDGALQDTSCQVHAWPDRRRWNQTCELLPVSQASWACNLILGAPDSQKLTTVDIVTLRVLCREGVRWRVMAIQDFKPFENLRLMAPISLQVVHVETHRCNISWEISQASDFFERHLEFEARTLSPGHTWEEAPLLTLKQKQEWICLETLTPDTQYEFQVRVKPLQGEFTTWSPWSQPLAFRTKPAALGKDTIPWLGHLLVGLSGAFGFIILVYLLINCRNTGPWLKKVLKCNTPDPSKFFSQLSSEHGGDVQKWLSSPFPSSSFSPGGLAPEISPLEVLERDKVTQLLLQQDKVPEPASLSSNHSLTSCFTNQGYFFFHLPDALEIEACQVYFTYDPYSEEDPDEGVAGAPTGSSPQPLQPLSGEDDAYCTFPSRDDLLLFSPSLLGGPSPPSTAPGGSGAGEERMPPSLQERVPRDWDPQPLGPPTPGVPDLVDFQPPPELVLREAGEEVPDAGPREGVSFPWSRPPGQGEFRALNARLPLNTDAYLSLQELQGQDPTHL
# Experiment Notes: cell-based or functional assay
Result Type: Relative Proliferation Fold Change 3F8 1:10 (fold)

# Binder, Unit Abbreviation, Quantitative Result
measured = [
    ("ΔA1, SQVLKA (ligand) PTSSSTKKTQLQLSQLLVLLKAILNGINNYKNPKLTRMLTFKFYMPKKATELKHLQCLEEELKPLEEVLNLAQSKNFHLRPRDLISNINVIVLELKGSETTFMCEYADETATIVEFLNRWITFCQSIISTLT", "fold", 22.6),
    ("I92F, SQVLKA (ligand) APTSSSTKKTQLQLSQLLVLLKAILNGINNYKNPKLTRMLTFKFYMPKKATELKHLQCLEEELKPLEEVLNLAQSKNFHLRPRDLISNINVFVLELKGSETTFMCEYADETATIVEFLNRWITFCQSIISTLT", "fold", 57.6),
]
